- target.of.assay: CSNK2B (UniProt P67870)
- Sequence (P67870 whole entry): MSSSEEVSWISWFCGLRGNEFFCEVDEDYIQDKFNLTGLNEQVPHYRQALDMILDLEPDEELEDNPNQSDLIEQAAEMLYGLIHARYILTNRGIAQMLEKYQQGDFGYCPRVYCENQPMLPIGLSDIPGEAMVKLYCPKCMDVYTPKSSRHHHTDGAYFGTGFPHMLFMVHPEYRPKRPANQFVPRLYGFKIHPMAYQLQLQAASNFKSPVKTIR
- procedure.details: EC50 of free RNA motif oligo competing protein binding to immobilised probe
result.type: EC50 (µM)
Entry rule: numbers only, all in µM.

Field EC50 (system: CSNK2B (UniProt P67870)) for entry AAUAAA = 3.56

---

- target.of.assay: AASS (UniProt Q9UDR5)
- Sequence: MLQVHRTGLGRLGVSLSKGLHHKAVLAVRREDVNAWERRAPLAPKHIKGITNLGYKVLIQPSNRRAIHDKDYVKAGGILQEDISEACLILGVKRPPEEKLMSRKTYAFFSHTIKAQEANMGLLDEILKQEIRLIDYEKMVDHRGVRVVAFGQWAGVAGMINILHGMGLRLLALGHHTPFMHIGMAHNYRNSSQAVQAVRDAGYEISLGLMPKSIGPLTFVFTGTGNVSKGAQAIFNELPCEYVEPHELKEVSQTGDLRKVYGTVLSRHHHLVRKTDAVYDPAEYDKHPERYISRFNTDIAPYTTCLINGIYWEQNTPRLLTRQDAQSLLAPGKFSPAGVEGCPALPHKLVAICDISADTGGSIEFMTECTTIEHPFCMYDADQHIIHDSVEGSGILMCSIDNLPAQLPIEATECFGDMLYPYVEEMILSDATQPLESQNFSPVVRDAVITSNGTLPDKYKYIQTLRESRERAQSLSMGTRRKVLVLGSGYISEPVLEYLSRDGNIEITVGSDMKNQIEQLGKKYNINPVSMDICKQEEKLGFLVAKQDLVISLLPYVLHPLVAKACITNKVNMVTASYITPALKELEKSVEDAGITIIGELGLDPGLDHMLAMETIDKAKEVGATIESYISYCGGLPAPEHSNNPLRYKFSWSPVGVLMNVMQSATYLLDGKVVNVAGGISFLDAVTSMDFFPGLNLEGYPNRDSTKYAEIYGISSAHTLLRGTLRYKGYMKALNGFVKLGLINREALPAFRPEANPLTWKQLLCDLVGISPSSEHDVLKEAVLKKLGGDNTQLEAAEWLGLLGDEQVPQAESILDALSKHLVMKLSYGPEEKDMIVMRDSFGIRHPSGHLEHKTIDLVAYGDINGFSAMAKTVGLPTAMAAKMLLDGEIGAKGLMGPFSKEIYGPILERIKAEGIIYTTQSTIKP
- procedure.details: Kd (EC50 corrected by depletion factor)
result.type: Kd (nM)
Unit nM implied. Number only.

Entry AAUAAA : Kd on AASS (UniProt Q9UDR5) = 1220

---

- target.of.assay: RPS18 (UniProt P62269)
- procedure.details: Kd (EC50 corrected by depletion factor)
result.type: Kd (µM)
// return numeric value only (unit: µM, not printed)

Lab note: measured Kd of CUGUCCU was 0.0426

---

- target.of.assay: MRPS2 (UniProt Q9Y399)
- procedure.details: Kd (EC50 corrected by depletion factor)
result.type: pKd
# log scale: pKd equals minus log10 of the concentration in mol/L

Param item: UAUUUAU ; param system: MRPS2 (UniProt Q9Y399); output pKd: 7.56

---

In this section we review reported pKd values for a set of sequences.
- target.of.assay: GPATCH3 (UniProt Q96I76)
- Sequence: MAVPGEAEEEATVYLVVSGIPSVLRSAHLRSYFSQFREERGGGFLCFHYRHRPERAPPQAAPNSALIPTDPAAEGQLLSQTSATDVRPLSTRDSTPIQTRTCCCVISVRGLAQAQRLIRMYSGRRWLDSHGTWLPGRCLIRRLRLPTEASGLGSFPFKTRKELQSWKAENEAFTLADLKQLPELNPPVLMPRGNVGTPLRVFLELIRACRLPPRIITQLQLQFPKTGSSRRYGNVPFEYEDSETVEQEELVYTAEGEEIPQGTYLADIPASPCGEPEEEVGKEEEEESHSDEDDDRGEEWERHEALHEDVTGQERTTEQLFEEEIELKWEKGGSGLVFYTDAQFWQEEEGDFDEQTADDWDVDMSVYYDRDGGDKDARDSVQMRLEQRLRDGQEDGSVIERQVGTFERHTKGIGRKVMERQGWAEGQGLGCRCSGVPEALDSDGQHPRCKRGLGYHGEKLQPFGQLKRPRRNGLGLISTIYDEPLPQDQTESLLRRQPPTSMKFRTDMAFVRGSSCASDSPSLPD
- procedure.details: Kd (EC50 corrected by depletion factor)
In plain terms, pKd is the concentration in mol/L turned into minus its base-10 logarithm.

{"columns": ["residues", "pKd"],
 "data": [
  ["UAUUUAU", 6.61]
]}

Could you now consider this next sequence?
Consider AAUAAA . Its measured pKd is 6.71

---

- target.of.assay: ELAVL1 (UniProt Q15717)
- Sequence (Q15717 whole entry): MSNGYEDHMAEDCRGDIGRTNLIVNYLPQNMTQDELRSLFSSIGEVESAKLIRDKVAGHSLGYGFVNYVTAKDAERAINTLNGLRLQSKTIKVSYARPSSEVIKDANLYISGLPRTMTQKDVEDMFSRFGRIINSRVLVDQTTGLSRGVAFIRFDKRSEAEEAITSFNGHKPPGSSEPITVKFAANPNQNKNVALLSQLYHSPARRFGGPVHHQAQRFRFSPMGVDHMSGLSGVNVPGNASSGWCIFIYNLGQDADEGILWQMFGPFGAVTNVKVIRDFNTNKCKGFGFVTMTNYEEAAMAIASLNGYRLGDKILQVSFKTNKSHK
- procedure.details: EC50 of free RNA motif oligo competing protein binding to immobilised probe
Recorded EC50 for the following sequences
# number only, unit µM dropped from output

{"columns": ["residues", "result.type", "unit.abbreviation", "measured.value"],
 "data": [
  ["UAUUUAU", "EC50", "µM", 3.04]
]}

Continue with the sequence presented below.
# sequence AAUAAA ; its EC50 = 5.06

---

- target.of.assay: SF3B6 (UniProt Q9Y3B4)
- Sequence (Q9Y3B4 whole entry): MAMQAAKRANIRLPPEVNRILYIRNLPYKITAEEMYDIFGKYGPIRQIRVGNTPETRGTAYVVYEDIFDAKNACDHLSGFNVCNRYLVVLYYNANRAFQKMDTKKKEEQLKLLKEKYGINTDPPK
- procedure.details: EC50 of free RNA motif oligo competing protein binding to immobilised probe
result.type: pEC50
Note on units: pEC50 is unitless, being -log10 of a concentration expressed in mol/L.

So for AAUAAA , the logged pEC50 turned out to be 5.34

---

- target.of.assay: RPS28 (UniProt P62857)
- procedure.details: EC50 of free RNA motif oligo competing protein binding to immobilised probe
result.type: EC50 (nM)
Output spec: scalar in nM, unitless text.

Recorded EC50 for CUGUCCU on RPS28 (UniProt P62857) was 212

---

- target.of.assay: CNBP (UniProt P62633)
- Sequence (P62633 whole entry): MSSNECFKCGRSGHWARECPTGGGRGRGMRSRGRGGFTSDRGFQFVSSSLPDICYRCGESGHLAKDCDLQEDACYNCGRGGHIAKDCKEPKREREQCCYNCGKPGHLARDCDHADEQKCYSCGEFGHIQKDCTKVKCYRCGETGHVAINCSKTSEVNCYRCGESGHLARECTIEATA
- procedure.details: Kd (EC50 corrected by depletion factor)
result.type: pKd
Please report pKd as the negative decimal logarithm of the molar concentration, giving only the number.

// returns pKd for UAUUUAU with CNBP (UniProt P62633); value = 5.90

---

- target.of.assay: P4HB (UniProt P07237)
- Sequence (P07237 whole entry, looked up): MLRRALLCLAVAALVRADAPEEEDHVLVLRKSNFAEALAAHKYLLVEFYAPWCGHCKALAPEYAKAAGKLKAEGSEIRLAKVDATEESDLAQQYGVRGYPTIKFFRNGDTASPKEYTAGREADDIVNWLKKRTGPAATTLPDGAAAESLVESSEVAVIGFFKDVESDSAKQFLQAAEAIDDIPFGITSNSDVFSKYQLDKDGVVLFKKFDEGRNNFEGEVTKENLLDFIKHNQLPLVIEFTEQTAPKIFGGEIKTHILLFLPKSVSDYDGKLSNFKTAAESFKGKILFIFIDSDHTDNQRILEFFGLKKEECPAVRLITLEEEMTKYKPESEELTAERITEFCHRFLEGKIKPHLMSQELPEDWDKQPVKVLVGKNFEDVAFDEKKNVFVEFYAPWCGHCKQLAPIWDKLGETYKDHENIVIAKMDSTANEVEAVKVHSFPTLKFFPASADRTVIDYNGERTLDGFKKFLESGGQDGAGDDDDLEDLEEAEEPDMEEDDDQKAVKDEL
- procedure.details: EC50 of free RNA motif oligo competing protein binding to immobilised probe
result.type: EC50
Kindly write the number and append the unit.

# EC50 of AAUAAA = 40.4 nM

---

- target.of.assay: HSP90AB2P (UniProt Q58FF8)
- Sequence (Q58FF8 whole entry): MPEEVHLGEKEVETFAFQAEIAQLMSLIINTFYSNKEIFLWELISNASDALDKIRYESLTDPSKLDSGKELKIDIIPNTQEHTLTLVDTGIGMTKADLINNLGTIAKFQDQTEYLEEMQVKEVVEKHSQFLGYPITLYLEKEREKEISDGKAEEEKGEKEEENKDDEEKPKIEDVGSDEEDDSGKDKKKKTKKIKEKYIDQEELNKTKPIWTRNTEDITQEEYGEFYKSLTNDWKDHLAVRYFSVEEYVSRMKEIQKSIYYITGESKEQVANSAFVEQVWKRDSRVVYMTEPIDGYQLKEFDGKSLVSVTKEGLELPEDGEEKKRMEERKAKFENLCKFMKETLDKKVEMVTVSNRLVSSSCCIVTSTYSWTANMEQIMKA
- procedure.details: Kd (EC50 corrected by depletion factor)
result.type: pKd
For clarity, pKd is expressed as the negative log10 of concentration in mol/L.

// AAUAAA : pKd value = 6.97

---

- target.of.assay: CSTF1 (UniProt Q05048)
- Sequence: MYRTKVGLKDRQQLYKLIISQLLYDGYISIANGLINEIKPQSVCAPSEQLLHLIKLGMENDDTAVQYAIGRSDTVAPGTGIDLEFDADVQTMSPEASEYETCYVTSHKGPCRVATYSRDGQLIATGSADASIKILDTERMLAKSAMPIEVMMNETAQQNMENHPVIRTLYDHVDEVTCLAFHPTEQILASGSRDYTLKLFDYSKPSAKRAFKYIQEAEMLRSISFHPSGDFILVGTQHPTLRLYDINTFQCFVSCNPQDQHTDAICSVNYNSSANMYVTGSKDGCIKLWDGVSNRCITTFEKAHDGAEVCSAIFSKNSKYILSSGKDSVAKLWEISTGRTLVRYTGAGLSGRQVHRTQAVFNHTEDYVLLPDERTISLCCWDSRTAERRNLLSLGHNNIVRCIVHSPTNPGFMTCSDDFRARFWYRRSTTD
- procedure.details: EC50 of free RNA motif oligo competing protein binding to immobilised probe
result.type: EC50 (nM)
Report only the number, with the unit nM understood.

{"columns": ["residues", "result.type", "unit.abbreviation", "measured.value"],
 "data": [
  ["UAUUUAU", "EC50", "nM", 574]
]}

// switching to the query sequence
The sequence listed as AAUAAA shows EC50 equal to 53.9

---

- target.of.assay: MRPL39 (UniProt Q9NYK5)
- procedure.details: EC50 of free RNA motif oligo competing protein binding to immobilised probe
result.type: EC50 (nM)
Record the value in nM, omitting the unit from your answer.

Recorded EC50 (sequence CUGUCCU ): 248

---

- target.of.assay: MRPL53 (UniProt Q96EL3)
- procedure.details: Kd (EC50 corrected by depletion factor)
result.type: pKd
pKd is a log-scale quantity: -log10 of the concentration expressed in molar.

sequence CUGUCCU , pKd observed: 7.00

---

- target.of.assay: GRSF1 (UniProt Q12849)
- Sequence: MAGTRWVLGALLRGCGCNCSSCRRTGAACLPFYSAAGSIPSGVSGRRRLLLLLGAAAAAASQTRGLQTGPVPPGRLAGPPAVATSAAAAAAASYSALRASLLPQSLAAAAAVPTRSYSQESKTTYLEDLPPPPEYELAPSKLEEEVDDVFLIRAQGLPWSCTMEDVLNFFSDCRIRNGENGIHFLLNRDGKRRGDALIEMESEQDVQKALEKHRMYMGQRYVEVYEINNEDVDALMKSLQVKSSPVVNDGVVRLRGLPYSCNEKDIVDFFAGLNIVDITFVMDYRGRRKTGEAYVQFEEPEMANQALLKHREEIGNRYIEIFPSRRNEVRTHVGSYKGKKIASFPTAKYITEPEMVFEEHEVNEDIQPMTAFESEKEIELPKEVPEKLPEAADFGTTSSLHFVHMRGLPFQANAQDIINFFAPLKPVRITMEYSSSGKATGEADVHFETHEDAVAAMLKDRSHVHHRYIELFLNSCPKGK
- procedure.details: EC50 of free RNA motif oligo competing protein binding to immobilised probe
result.type: EC50 (µM)
# value in µM; strip the unit string

Recorded result, UAUUUAU , EC50: 18
